Reference source: patent US20200392158A1

Overview of recorded IC50 for various compounds
Target: full length G2019 human LRRK2 (Homo sapiens, UniProt Q5S007, R50H)
Sequence (Q5S007 with tags, fused parts or gaps R50H): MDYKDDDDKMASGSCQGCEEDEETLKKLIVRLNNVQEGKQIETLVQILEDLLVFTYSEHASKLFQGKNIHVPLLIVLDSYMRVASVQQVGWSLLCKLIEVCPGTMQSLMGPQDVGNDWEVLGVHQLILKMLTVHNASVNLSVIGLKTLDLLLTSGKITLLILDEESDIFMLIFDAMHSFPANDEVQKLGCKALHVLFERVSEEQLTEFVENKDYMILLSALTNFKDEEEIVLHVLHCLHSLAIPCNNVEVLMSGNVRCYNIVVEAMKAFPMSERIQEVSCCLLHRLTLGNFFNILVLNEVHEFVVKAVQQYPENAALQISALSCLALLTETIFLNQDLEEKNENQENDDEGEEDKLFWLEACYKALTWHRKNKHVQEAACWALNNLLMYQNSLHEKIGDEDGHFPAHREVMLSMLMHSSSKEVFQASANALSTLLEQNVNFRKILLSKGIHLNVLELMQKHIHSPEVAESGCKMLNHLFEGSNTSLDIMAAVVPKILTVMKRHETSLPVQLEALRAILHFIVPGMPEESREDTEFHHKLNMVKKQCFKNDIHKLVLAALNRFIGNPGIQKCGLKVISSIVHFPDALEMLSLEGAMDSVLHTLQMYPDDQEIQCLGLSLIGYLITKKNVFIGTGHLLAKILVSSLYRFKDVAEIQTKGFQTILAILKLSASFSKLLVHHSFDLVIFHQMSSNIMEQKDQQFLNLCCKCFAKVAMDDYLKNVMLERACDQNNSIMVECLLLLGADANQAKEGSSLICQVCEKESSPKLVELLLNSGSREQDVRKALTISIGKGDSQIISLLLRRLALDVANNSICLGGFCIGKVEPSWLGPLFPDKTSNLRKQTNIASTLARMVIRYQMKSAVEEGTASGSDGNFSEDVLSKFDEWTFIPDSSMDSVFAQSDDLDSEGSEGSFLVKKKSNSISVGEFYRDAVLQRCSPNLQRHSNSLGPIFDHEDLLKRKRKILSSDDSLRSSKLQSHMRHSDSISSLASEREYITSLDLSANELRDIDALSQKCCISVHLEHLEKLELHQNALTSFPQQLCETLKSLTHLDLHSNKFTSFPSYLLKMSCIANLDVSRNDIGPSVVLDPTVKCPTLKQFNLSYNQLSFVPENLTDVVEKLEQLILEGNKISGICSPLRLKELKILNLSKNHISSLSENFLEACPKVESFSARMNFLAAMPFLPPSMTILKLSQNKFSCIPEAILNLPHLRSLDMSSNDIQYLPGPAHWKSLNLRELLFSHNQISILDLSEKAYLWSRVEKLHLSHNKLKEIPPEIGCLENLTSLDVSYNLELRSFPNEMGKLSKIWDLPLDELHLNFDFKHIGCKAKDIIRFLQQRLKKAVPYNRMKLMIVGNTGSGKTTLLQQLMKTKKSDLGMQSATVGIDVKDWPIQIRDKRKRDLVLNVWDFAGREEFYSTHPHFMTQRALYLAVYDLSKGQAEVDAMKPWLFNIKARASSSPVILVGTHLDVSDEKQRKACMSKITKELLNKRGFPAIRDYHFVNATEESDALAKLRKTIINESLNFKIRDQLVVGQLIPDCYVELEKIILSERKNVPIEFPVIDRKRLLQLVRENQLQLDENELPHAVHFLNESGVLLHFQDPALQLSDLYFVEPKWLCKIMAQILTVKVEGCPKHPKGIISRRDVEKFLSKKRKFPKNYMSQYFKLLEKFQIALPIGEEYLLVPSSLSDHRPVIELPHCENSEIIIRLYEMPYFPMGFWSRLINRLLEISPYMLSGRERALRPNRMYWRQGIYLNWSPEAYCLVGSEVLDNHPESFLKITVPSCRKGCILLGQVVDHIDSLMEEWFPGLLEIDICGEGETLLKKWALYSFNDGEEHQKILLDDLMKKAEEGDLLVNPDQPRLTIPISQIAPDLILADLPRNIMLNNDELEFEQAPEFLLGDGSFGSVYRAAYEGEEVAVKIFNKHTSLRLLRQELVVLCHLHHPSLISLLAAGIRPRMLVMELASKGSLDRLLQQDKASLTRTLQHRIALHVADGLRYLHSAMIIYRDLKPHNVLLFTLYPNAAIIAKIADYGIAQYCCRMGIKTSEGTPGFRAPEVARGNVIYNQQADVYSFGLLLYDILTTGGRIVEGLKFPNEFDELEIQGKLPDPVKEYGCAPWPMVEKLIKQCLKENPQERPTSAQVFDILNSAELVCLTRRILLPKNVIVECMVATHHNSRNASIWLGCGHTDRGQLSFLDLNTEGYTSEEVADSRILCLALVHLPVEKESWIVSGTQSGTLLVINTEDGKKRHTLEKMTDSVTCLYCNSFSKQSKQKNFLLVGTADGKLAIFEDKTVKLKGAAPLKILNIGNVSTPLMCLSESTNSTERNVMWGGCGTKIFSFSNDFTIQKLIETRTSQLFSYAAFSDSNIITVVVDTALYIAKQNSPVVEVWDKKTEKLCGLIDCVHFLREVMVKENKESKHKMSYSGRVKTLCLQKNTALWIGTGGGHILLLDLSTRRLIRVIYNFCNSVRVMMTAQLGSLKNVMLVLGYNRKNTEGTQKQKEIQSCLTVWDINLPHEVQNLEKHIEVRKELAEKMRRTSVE
Assay: Full length G2019 human LRRK2 inhibition mass spectrometry assay
Details: LRRKtide to phospho-LRRKtide conversion, RapidFire MS, 2 mM ATP
measured-parameter: IC50

INSERT INTO assay_data (compound, result) VALUES
  ('Cc1c2c(nn1C1CCOCC1)OCCC(C)Nc1nc(ncc1Cl)N2 (stereo not shown)', '≤ 100 nM'),
  ('Cc1c2c(nn1C1CC(O)C1)OCC[C@@H](C)N(C)c1nc(ncc1Cl)N2 (stereo partly shown)', '≤ 100 nM'),
  ('Cc1c2c(nn1CCN1C[C@H]3C[C@@H]1CO3)OCCC(C)Nc1nc(ncc1Cl)N2 (single isomer, unassigned) [E208]', '≤ 100 nM'),
  ('Cc1c2c(nn1C1CC(C)OC(C)C1)OCCCNc1nc(ncc1Cl)N2 (single isomer, unassigned)', '≤ 100 nM');

* * *

A collection of molecules and their measured IC50
Biological target: full length G2019 human LRRK2 (Homo sapiens, UniProt Q5S007, R50H)
Assay: Full length G2019 human LRRK2 inhibition mass spectrometry assay
Conditions: LRRKtide to phospho-LRRKtide conversion, RapidFire MS, 2 mM ATP
measured-parameter: IC50

INSERT INTO measurements (molecule, test_target, result) VALUES
  ('Cc1c2c(nn1C1CCOCC1)OCC(F)C(C)Nc1nc(ncc1Cl)N2 (single isomer, unassigned) [E64]', 'full length G2019 human LRRK2 (Homo sapiens, UniProt Q5S007, R50H)', '≤ 100 nM'),
  ('Cc1c2c(nn1C1CCN(C3COC3)CC1(F)F)OCCCNc1nc(ncc1Cl)N2 (single isomer, unassigned) [E406]', 'full length G2019 human LRRK2 (Homo sapiens, UniProt Q5S007, R50H)', '≤ 100 nM'),
  ('Cc1c2c(nn1CC(C)(C)O)OCCC(C)Nc1nc(ncc1Cl)N2 (single isomer, unassigned) [E264]', 'full length G2019 human LRRK2 (Homo sapiens, UniProt Q5S007, R50H)', '≤ 10000 nM'),
  ('Cc1c2c(nn1C1CC3CCC(C1)O3)OCCCNc1nc(ncc1Cl)N2 (single isomer, unassigned) [E244]', 'full length G2019 human LRRK2 (Homo sapiens, UniProt Q5S007, R50H)', '≤ 100 nM'),
  ('Cc1c2c(nn1C1CCOCC1C)OCCCNc1nc(ncc1Cl)N2 (single isomer, unassigned) [E140]', 'full length G2019 human LRRK2 (Homo sapiens, UniProt Q5S007, R50H)', '≤ 100 nM'),
  ('Cc1c2c(nn1C1CCOC1)OCCCNc1nc(ncc1Cl)N2 (single isomer, unassigned) [E124]', 'full length G2019 human LRRK2 (Homo sapiens, UniProt Q5S007, R50H)', '≤ 100 nM'),
  ('COCC1CCOc2nn(C3CCOCC3F)c(C)c2Nc2ncc(Cl)c(n2)N1 (single isomer, unassigned) [E355]', 'full length G2019 human LRRK2 (Homo sapiens, UniProt Q5S007, R50H)', '≤ 100 nM'),
  ('Cc1c2c(nn1C(C)C1CCOCC1)OCCC(C)Nc1nc(ncc1Cl)N2 (single isomer, unassigned) [E182]', 'full length G2019 human LRRK2 (Homo sapiens, UniProt Q5S007, R50H)', '≤ 10000 nM'),
  ('Cc1c2c(nn1C1CCOCC1)OCCC(C(F)(F)F)Nc1nc(ncc1Cl)N2 (single isomer, unassigned) [E193]', 'full length G2019 human LRRK2 (Homo sapiens, UniProt Q5S007, R50H)', '≤ 10000 nM'),
  ('Cc1c2c(nn1C1CCOCC1)OCC[C@@H](C)Nc1nc(ncc1F)N2', 'full length G2019 human LRRK2 (Homo sapiens, UniProt Q5S007, R50H)', '≤ 100 nM'),
  ('Clc1cnc2nc1NCCCOc1nn(C3CCCOC3)cc1N2 (centres unmarked)', 'full length G2019 human LRRK2 (Homo sapiens, UniProt Q5S007, R50H)', '≤ 10000 nM'),
  ('Cc1c2c(nn1C1CCOC(C)C1)OCCCNc1nc(ncc1Cl)N2 (single isomer, unassigned)', 'full length G2019 human LRRK2 (Homo sapiens, UniProt Q5S007, R50H)', '≤ 100 nM'),
  ('Cc1c2c(nn1C1CCC(N3CCOCC3)C1)OCCCNc1nc(ncc1Cl)N2 (single isomer, unassigned) [E370]', 'full length G2019 human LRRK2 (Homo sapiens, UniProt Q5S007, R50H)', '≤ 10000 nM'),
  ('Cc1c2c(nn1CCN1CCC(F)C1)OCCC(C)Nc1nc(ncc1Cl)N2 (single isomer, unassigned) [E218]', 'full length G2019 human LRRK2 (Homo sapiens, UniProt Q5S007, R50H)', '≤ 100 nM'),
  ('Cc1[nH]nc2c1Nc1ncc(Br)c(n1)NCCCO2', 'full length G2019 human LRRK2 (Homo sapiens, UniProt Q5S007, R50H)', '≤ 100 nM'),
  ('Cc1c2c(nn1C1CCOCC1)OCCC(C)Nc1nc(ncc1C(F)(F)F)N2 (single isomer, unassigned) [E290]', 'full length G2019 human LRRK2 (Homo sapiens, UniProt Q5S007, R50H)', '≤ 10000 nM'),
  ('Cc1cnc2nc1N[C@H](C)CCOc1nn(C3CCOCC3)c(C)c1N2', 'full length G2019 human LRRK2 (Homo sapiens, UniProt Q5S007, R50H)', '≤ 10000 nM'),
  ('COCCn1nc2c(c1C)Nc1ncc(Cl)c(n1)NCCCO2', 'full length G2019 human LRRK2 (Homo sapiens, UniProt Q5S007, R50H)', '≤ 100 nM'),
  ('Cc1c2c(nn1C(C)C1CCOCC1)OCCCNc1nc(ncc1Cl)N2 (single isomer, unassigned) [E187]', 'full length G2019 human LRRK2 (Homo sapiens, UniProt Q5S007, R50H)', '≤ 100 nM'),
  ('Cc1c2c(nn1C(C)(C)C(N)=O)OCCCNc1nc(ncc1Cl)N2', 'full length G2019 human LRRK2 (Homo sapiens, UniProt Q5S007, R50H)', '≤ 10000 nM'),
  ('Cc1c2c(nn1C1CCCOC1)OCC(C)CNc1nc(ncc1Cl)N2 (single isomer, unassigned) [E308]', 'full length G2019 human LRRK2 (Homo sapiens, UniProt Q5S007, R50H)', '≤ 100 nM'),
  ('Cc1c2c(nn1C1CCC(N3C[C@H]4C[C@@H]3CO4)CC1)OCCCNc1nc(ncc1Cl)N2 (single isomer, unassigned) [E49]', 'full length G2019 human LRRK2 (Homo sapiens, UniProt Q5S007, R50H)', '≤ 100 nM'),
  ('Clc1cnc2nc1NCCCOc1nn(C3CCOC3)c(Cl)c1N2 (single isomer, unassigned) [E145]', 'full length G2019 human LRRK2 (Homo sapiens, UniProt Q5S007, R50H)', '≤ 100 nM'),
  ('Cc1c2c(nn1C1CC3(COC3)C1)OCC[C@@H](C)Nc1nc(ncc1Cl)N2', 'full length G2019 human LRRK2 (Homo sapiens, UniProt Q5S007, R50H)', '≤ 100 nM'),
  ('Cc1c2c(nn1C1CCOC(C)C1)OCCC(C)Nc1nc(ncc1Cl)N2 (single isomer, unassigned)', 'full length G2019 human LRRK2 (Homo sapiens, UniProt Q5S007, R50H)', '≤ 100 nM'),
  ('Cc1c2c(nn1C(=O)C1CCOCC1)OCCCNc1nc(ncc1Cl)N2', 'full length G2019 human LRRK2 (Homo sapiens, UniProt Q5S007, R50H)', '≤ 10000 nM'),
  ('COC1CNc2nc(ncc2Cl)Nc2c(nn(CC3CCOCC3)c2C)OC1 (single isomer, unassigned) [E274]', 'full length G2019 human LRRK2 (Homo sapiens, UniProt Q5S007, R50H)', '≤ 100 nM'),
  ('Cc1c2c(nn1C1CCOC1)OCCCNc1nc(ncc1C(F)(F)F)N2 (single isomer, unassigned) [E127]', 'full length G2019 human LRRK2 (Homo sapiens, UniProt Q5S007, R50H)', '≤ 100 nM'),
  ('Cc1c2c(nn1C(C)(C)C)OCC[C@@H](C)Nc1nc(ncc1Cl)N2', 'full length G2019 human LRRK2 (Homo sapiens, UniProt Q5S007, R50H)', '≤ 100 nM'),
  ('Cc1c2c(nn1C1CCCOC1)OCC(C)CNc1nc(ncc1Cl)N2 (single isomer, unassigned) [E307]', 'full length G2019 human LRRK2 (Homo sapiens, UniProt Q5S007, R50H)', '≤ 100 nM'),
  ('Cc1c2c(nn1C1CCOCC1F)OCCCNc1nc(ncc1Cl)N2 (single isomer, unassigned)', 'full length G2019 human LRRK2 (Homo sapiens, UniProt Q5S007, R50H)', '≤ 100 nM'),
  ('COC1CCCC(n2nc3c(c2C)Nc2ncc(Cl)c(n2)NCCCO3)C1 (single isomer, unassigned) [E180]', 'full length G2019 human LRRK2 (Homo sapiens, UniProt Q5S007, R50H)', '≤ 100 nM');
